Data origin: ChEMBL document CHEMBL1909046

assay: DRUGMATRIX: Tumor Necrosis Factor (TNF), Non-Selective radioligand binding (ligand: [125I] TNF-alpha); type: cell membranes, Membrane; conditions: u-937; Not Active = under 50% inhibition at 10 µM
endpoint label: IC50

# compound, IC50
records = [
    ("COP(=O)(OC)OC=C(Cl)Cl", "Not Active"),
    ("Cc1nccn1CC1CCc2c(c3ccccc3n2C)C1=O (configuration not stated)", "Not Active"),
    ("COCCOC(=O)C1=C(C)NC(C)=C(C(=O)OC(C)C)C1c1cccc([N+](=O)[O-])c1 (configuration not stated)", "Not Active"),
    ("CC1(C)O[C@@H]2C[C@H]3[C@@H]4C[C@H](F)C5=CC(=O)C=C[C@]5(C)[C@@]4(F)[C@@H](O)C[C@]3(C)[C@]2(C(=O)CO)O1 [FLUOCINOLONE ACETONIDE]", "Not Active"),
    ("O=C(C1CCCCC1)N1CC(=O)N2CCc3ccccc3C2C1 (configuration not stated)", "Not Active"),
    ("C[C@@H]1C[C@@H]([C@H](O)CC2CC(=O)NC(=O)C2)C(=O)[C@@H](C)C1 [CYCLOHEXIMIDE]", "Not Active"),
    ("CC(C)(C)c1ccc(C(O)CCCN2CCC(C(O)(c3ccccc3)c3ccccc3)CC2)cc1 (configuration not stated)", "Not Active"),
    ("CCCC(=O)Nc1ccc(OCC(O)CNC(C)C)c(C(C)=O)c1 (configuration not stated)", "Not Active"),
    ("C#C[C@]1(O)CC[C@H]2[C@@H]3CCc4cc(OC)ccc4[C@H]3CC[C@@]21C", "Not Active"),
    ("CCCN(CCC)C(=O)C(CCC(=O)O)NC(=O)c1ccccc1 (configuration not stated) [PROGLUMIDE]", "Not Active"),
]

Input: Return value of IC50 for input COc1ccc2[nH]c([S+]([O-])Cc3ncc(C)c(OC)c3C)nc2c1 (configuration not stated) , no commentary.
Output: Not Active

Input: Return value of IC50 for input O=S(=O)([O-])CCS.[Na+] , no commentary.
Output: Not Active

Input: Return value of IC50 for input C/C=C/C[C@@H](C)[C@@H](O)[C@H]1C(=O)N[C@@H](CC)C(=O)N(C)CC(=O)N(C)[C@@H](CC(C)C)C(=O)N[C@@H](C(C)C)C(=O)N(C)[C@@H](CC(C)C)C(=O)N[C@@H](C)C(=O)N[C@H](C)C(=O)N(C)[C@@H](CC(C)C)C(=O)N(C)[C@@H](CC(C)C)C(=O)N(C)[C@@H](C(C)C)C(=O)N1C , no commentary.
Output: Not Active

Input: Return value of IC50 for input CC(C)CC(N(C)C)C1(c2ccc(Cl)cc2)CCC1 (configuration not stated) , no commentary.
Output: Not Active

Input: Return value of IC50 for input CCCCOc1ccc(OCCCN2CCOCC2)cc1 , no commentary.
Output: Not Active

Input: Return value of IC50 for input O=C1CCC(N2C(=O)c3ccccc3C2=O)C(=O)N1 (configuration not stated) [THALIDOMIDE] , no commentary.
Output: Not Active

Input: Return value of IC50 for input CCOC(=O)[C@H](CCc1ccccc1)N[C@H]1CCc2ccccc2N(CC(=O)O)C1=O , no commentary.
Output: Not Active
